Test: 14-day daily oral repeated-dose DRF study in cynomolgus monkeys (mesylate salt)
Format: in vivo
Details: both sexes, cynomolgus monkey, plasma, po, 8 mg/kg, 8 mg/kg (Gr. 3), Day 1
OBSERVED_PROPERTY: AUC(0-t) (ng·h/mL)
Please respond with the number in ng·h/mL and leave the unit unwritten.

Request the reported AUC(0-t) associated with CC(C)C[C@@H]1NCCN([C@@H](CC(C)C)C(=O)N2CCC3(C[C@@H]2C)OCC(CN2CCCC2)CO3)C1=O (stereo partly shown) [Compound 1]
64.9

* * *

Experiment: 28-day once weekly oral repeated-dose DRF study in cynomolgus monkeys (mesylate salt)
Assay type: in vivo
Details: female, cynomolgus monkey, blood, po, 60 mg/kg, F, Day 1
OBSERVED_PROPERTY: Tmax

Request the reported Tmax associated with CC(C)C[C@@H]1NCCN([C@@H](CC(C)C)C(=O)N2CCC3(C[C@@H]2C)OCC(CN2CCCC2)CO3)C1=O (stereo partly shown)
1 h

* * *

Assay: Single dose intravenous and oral PK in Beagle dogs (citrate salt)
Type: in vivo
Parameters: unit not given here
Conditions: both sexes, Beagle, dog, whole blood; po 12 mg/kg
OBSERVED_PROPERTY: AUC(0-t)
Please respond with just the number, no unit label.

Request the reported AUC(0-t) associated with CC(C)C[C@@H]1NCCN([C@@H](CC(C)C)C(=O)N2CCC3(C[C@@H]2C)OCC(CN2CCCC2)CO3)C1=O (stereo partly shown)
1.91

* * *

Test: 28-day once weekly oral repeated-dose DRF study in cynomolgus monkeys (mesylate salt)
Format: in vivo
Conditions: male, cynomolgus monkey, whole blood, po, 45 mg/kg, M, Day 1
OBSERVED_PROPERTY: half-life (h)
Please respond with the number in h and leave the unit unwritten.

Request the reported half-life associated with CC(C)C[C@@H]1NCCN([C@@H](CC(C)C)C(=O)N2CCC3(C[C@@H]2C)OCC(CN2CCCC2)CO3)C1=O (stereo partly shown) [Compound 1]
7.6

* * *

Test: 14-day daily oral repeated-dose exploratory study in CD-1 mice (mesylate salt)
Type: in vivo
Settings: female, CD-1, mouse, in vivo, po, 15 mg/kg, F, Day 14
OBSERVED_PROPERTY: Cmax

Request the reported Cmax associated with CC(C)C[C@@H]1NCCN([C@@H](CC(C)C)C(=O)N2CCC3(C[C@@H]2C)OCC(CN2CCCC2)CO3)C1=O (stereo partly shown)
151 ng/mL

* * *

Test: 28-day once weekly oral repeated-dose DRF study in CD-1 mice (mesylate salt), plasma
Assay type: in vivo
Settings: male, CD-1, mouse, plasma, po, 300 mg/kg, 300 mg/kg/week, 4th dose (Week 4); read-out: AUC0-8h
Protocol: This study explored the PK of Compound 1 after once weekly oral administration of 300 and 600 mg/kg/week for 4 consecutive weeks to male CD-1 mice. Compound 1 (mesylate salt) was administered in 4 weekly doses by oral gavage to groups of male CD-1 mice (n=3/group) at dose levels of 300 and 600 mg/kg bodyweight per week. A suspension of 0.5% methylcellulose (w/v) in sterile water served as vehicle. […] Total plasma concentrations of Compound 1 were analyzed using a qualified LC-MS/MS method.
OBSERVED_PROPERTY: AUC(0-t) (ng·h/mL)
Please respond with the number in ng·h/mL and leave the unit unwritten.

Request the reported AUC(0-t) associated with CC(C)C[C@@H]1NCCN([C@@H](CC(C)C)C(=O)N2CCC3(C[C@@H]2C)OCC(CN2CCCC2)CO3)C1=O (stereo partly shown)
38200
